Assay: qHTS of pediatric cancer cell lines to identify multiple opportunities for drug repurposing: Primary screen for TC32 cells (AID 1347089); note: nearly all actives have a fitted effect of over 60% in size
Conditions: TC32 Ewing sarcoma viability, CellTiter-Glo luminescence, 48 h; series mostly up to 45.8 µM
Protocol: Drug repurposing or repositioning has been offered as a strategy for drug development in oncology programs. […] [1] Shen, M et al. Quantitative high-throughput phenotypic screening of pediatric cancer cell lines identifies multiple opportunities for drug repurposing. […] Cells were assayed in growth media at a density of 500-1,000 cells/well. […] After a 15min incubation at room temperature, samples were analyzed for luminescence intensity using a ViewLux High-throughput CCD imager equipped with clear filters.
Inconclusive results are not listed. The source made the active and inactive calls. Calls come from the whole dose curve; as a rule, active = well fitted cell-killing curve with a large enough effect; inconclusive = small, poorly fitted or top-dose-only effect; inactive = flat fitted curve, though single readings scatter.
Outcomes: YES (active), NO (inactive)

{"columns": ["Molecule", "Label class"],
 "data": [
  ["COc1nn(CSP(=S)(OC)OC)c(=O)s1", "NO"],
  ["CCOC(=O)Nc1ccc(NCc2ccc(F)cc2)cc1N", "NO"],
  ["CC1=NN=C(c2ccc(N)cc2)c2cc3c(cc2C1)OCO3", "NO"],
  ["CC[C@@H](C(N)=O)N1CCCC1=O", "NO"],
  ["C[C@](O)(COc1ccc(C#N)cc1)C(=O)Nc1ccc(C#N)c(C(F)(F)F)c1", "NO"],
  ["O=S(=O)(F)Cc1ccccc1", "NO"],
  ["CCOC(=O)c1cncn1[C@H](C)c1ccccc1", "NO"],
  ["CC(C)NCC(O)c1ccc([N+](=O)[O-])cc1 (centres undefined)", "NO"],
  ["C[C@]12COC(=O)C[C@@H]1CC[C@@H]1[C@H]2CC[C@@]2(C)[C@H]1CC[C@]2(C)O", "NO"],
  ["O=C(O)CNC(=O)c1c(O)c2ccccc2n(Cc2ccccc2)c1=O", "NO"],
  ["CC(N[C@H]1C[C@H]1c1ccccc1)c1ccc2c(c1)OCCO2 (some centres undefined)", "NO"],
  ["O=C(O)COc1nc(Cl)c(Cl)cc1Cl", "NO"],
  ["Cc1[nH]nc2ccc(-c3cncc(OC[C@@H](N)Cc4c[nH]c5ccccc45)c3)cc12", "YES"],
  ["S=C(SSC(=S)N1CCCCC1)N1CCCCC1", "YES"],
  ["C[C@H]1CCCC=CC2C[C@H](O)C[C@@H]2[C@H](O)C=CC(=O)O1 (some centres undefined)", "YES"],
  ["Fc1cc(Br)ccc1CBr", "NO"],
  ["CC1=C(C(=O)O)N2C(=O)[C@@H](N)[C@H]2SC1", "NO"],
  ["CC(=Cc1csc(C)n1)[C@@H]1C[C@H]2O[C@]2(C)CCC[C@H](C)[C@@H](O)[C@@H](C)C(=O)C(C)(C)[C@@H](O)CC(=O)O1", "YES"],
  ["CC(O)=C(C#N)C(=O)Nc1cc(Br)ccc1Br", "NO"],
  ["CC[C@@]1(O)C(=O)OCc2c1cc1n(c2=O)Cc2cc3ccccc3nc2-1", "YES"],
  ["OCCCBr", "NO"],
  ["C1CCC(NC2CCCCC2)CC1", "NO"],
  ["COC1=C[C@@H]2[C@@H]3Cc4ccc(OC)c(O)c4[C@]2(CCN3C)CC1=O", "NO"],
  ["c1ccc2c(CN3CCNCC3)cccc2c1", "NO"]
]}
